Recorded growth inhibition, one value per entry.
# ASSAY_SUMMARY: NCI Yeast Anticancer Drug Screen. Data for the cln2 rad14 strain (AID 165);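 also: 0% = growth equal to vehicle treated cultures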
# ASSAY_CONTEXT: S. cerevisiae cln2 rad14 strain, at 50.0 µM, active compounds read high
# Method: Growth inhibition of yeast strains with defined genetic alterations is measured as a screen for potential anti-cancer activity. Selected strains with alterations in DNA damage repair or cell cycle control were exposed to compounds and growth inhibition was measured relative to vehicle treated controls. The strain used in this assay is cln2 rad14
This is part of a sample that, as a whole, favours compounds with a hit. Of some 79,000 tested, about 15% had one in any assay.
The figure you give is taken to be in %; do not add the unit.

(Q) # return recorded growth inhibition for input O=C(O)CCCCCC1=CCCCC1
(A) 19.2

Next:
(Q) # return recorded growth inhibition for input COc1ccc(C=O)c(NC(=O)C(C)(C)C)c1
(A) 1.7

(Q) # return recorded growth inhibition for input Cc1cccc(/C=N\N=C\c2cccc(C)n2)n1
(A) -3

(Q) # return recorded growth inhibition for input Cc1cc([N+](=O)[O-])c(Cl)cc1Cl
(A) 26.5

(Q) # return recorded growth inhibition for input CC(C)OC(=S)Nc1ccc(Cl)c(COC(C)(C)C)c1
(A) 7.6

====

# ASSAY_SUMMARY: NCI Yeast Anticancer Drug Screen. Data for the bub3 strain (AID 167)
# ASSAY_CONTEXT: S. cerevisiae bub3 mutant strain, at 50.0 µM, active compounds read high
This is part of a sample that, as a whole, favours compounds with a hit. Of some 79,000 tested, about 15% had one in any assay.
Recorded growth inhibition, one value per entry.
The figure you give is taken to be in %; do not add the unit.

(Q) # return recorded growth inhibition for input CCCCC1(O)CC2CC1C(C)C2(C)C (configuration not stated)
(A) 16.4

Okay, now this compound:
(Q) # return recorded growth inhibition for input CCN(CC)CCOC(=O)C(c1ccccc1)C1C=CCCC1 (configuration not stated)
(A) -3.1

====

# ASSAY_SUMMARY: NCI Yeast Anticancer Drug Screen. Data for the mlh1 rad18 strain (AID 175)
# ASSAY_CONTEXT: S. cerevisiae mlh1 rad18 strain growth inhibition; at 50.0 µM; active compounds read high
Compounds without any hit were thinned out: in the full panel of roughly 79,000, 15% have a hit.
READOUT_KIND: growth inhibition (%)
The figure you give is taken to be in %; do not add the unit.

(Q) # return recorded growth inhibition for input CCN1CC(O)Cc2ccccc21 (stereo unspecified)
(A) -3.5

(Q) # return recorded growth inhibition for input Cc1ccc2c(c1)nc(N)n[n+]2[O-]
(A) -39.5

(Q) # return recorded growth inhibition for input N/C(=N\N=C\C1CC2C=CC1C2)NO (stereo unspecified)
(A) -4.55

(Q) # return recorded growth inhibition for input Nc1nc(N)c2c(n1)NCN(OCOc1ccc(Cl)cc1)C2
(A) 1.55

(Q) # return recorded growth inhibition for input CCOC(=O)N/N=C(\C)c1ccc(OC)cc1
(A) 19.1

(Q) # return recorded growth inhibition for input CC(C)CC(=O)NC(C(=O)NC(C(=O)NC(CC(C)C)C(O)CC(=O)NC(C)C(=O)NC(CC(C)C)C(O)CC(=O)O)C(C)C)C(C)C (stereo unspecified)
(A) -9.75

(Q) # return recorded growth inhibition for input Cc1nc(N)c2c(ncn2C2OC(CO)C(O)C2O)n1 (stereo unspecified)
(A) 14.6

(Q) # return recorded growth inhibition for input CCOC(=O)NC
(A) 9.8

(Q) # return recorded growth inhibition for input CCCCCCCCCCCCCCCCCCOCCCCCCCCCCCC
(A) -17.1

(Q) # return recorded growth inhibition for input COc1cc(-c2ccc(N=Nc3ccc(N)nc3N)c(OC)c2)ccc1N=Nc1ccc(N)nc1N
(A) 11.7

(Q) # return recorded growth inhibition for input COc1ccc2c(c1)[n+](=O)c(C(=O)C/C(=N/OCCCc1ccccc1)C(=O)NC13CC4CC(CC(C4)C1)C3)c(C)n2[O-]
(A) -4.6

====

# ASSAY_SUMMARY: NCI Yeast Anticancer Drug Screen. Data for the cln2 rad14 strain (AID 165);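 also: 0% = growth equal to vehicle treated cultures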
# ASSAY_CONTEXT: S. cerevisiae cln2 rad14 strain, at 50.0 µM, active compounds read high
The panel holds about 79,000 compounds, 15% with a hit somewhere; the sample as a whole holds those more often.
READOUT_KIND: growth inhibition (%)
The figure you give is taken to be in %; do not add the unit.

(Q) # return recorded growth inhibition for input CC(=O)CC(=O)NCc1ccccc1
(A) 17.2

(Q) # return recorded growth inhibition for input O=C(NCCN1CCCC1)Nc1ccccc1
(A) -47.7

(Q) # return recorded growth inhibition for input O=C(C[n+]1ccccc1Br)c1ccc(I)cc1
(A) -6.95

(Q) # return recorded growth inhibition for input CCC1CN2CCc3cc(OC)c(OC)cc3C2CC12CO2 (stereo not drawn)
(A) -2.5

(Q) # return recorded growth inhibition for input CN(C)c1ccccc1C(=O)NNC(=S)Nc1ccccc1
(A) -13.1

(Q) # return recorded growth inhibition for input Cc1ccc(-n2c(=O)nc([O-])[n+]3ccccc23)cc1
(A) -24.8

(Q) # return recorded growth inhibition for input CC(CN(C)C)Oc1ccc2c(c1)C(=O)C(C)C2 (stereo not drawn)
(A) -28.9

(Q) # return recorded growth inhibition for input CC(=NNC(=S)Nc1ccccc1)c1cccc(C(C)=NNC(=S)Nc2ccccc2)n1
(A) 2.65

Next:
(Q) # return recorded growth inhibition for input COc1cc(C(C)C)c(Oc2c(C)c(OC)cc(C(C)C)c2O)cc1C (tested in a mixture with another compound)
(A) -11.1

(Q) # return recorded growth inhibition for input CCN(CC)C(=O)CCC1CCCCC1
(A) -39.3

(Q) # return recorded growth inhibition for input CCN(CC)CCN1CC(=O)N2Cc3ccccc3CN2C(=O)C1
(A) 10.4

====

# ASSAY_SUMMARY: NCI Yeast Anticancer Drug Screen. Data for the bub3 strain (AID 167)
# ASSAY_CONTEXT: S. cerevisiae bub3 mutant strain, at 50.0 µM, active compounds read high
This is part of a sample that, as a whole, favours compounds with a hit. Of some 79,000 tested, about 15% had one in any assay.
T means recorded growth inhibition is 10% or above; F means it is below 10%.

(Q) Does growth inhibition meet or surpass 10% for O=C(Nc1c(Cl)cccc1Cl)OCc1ccco1 ?
(A) T

(Q) Does growth inhibition meet or surpass 10% for CNC(=O)OCCC(OC(=O)NC)C1CCC2C3CCC4CC(OC(=O)c5ccccc5)CCC4(C)C3CCC12C (stereo unspecified) ?
(A) F

(Q) Does growth inhibition meet or surpass 10% for CC(C)=CCNc1nc(Cl)nc2nc[nH]c12 ?
(A) F

(Q) Does growth inhibition meet or surpass 10% for CC1=NN(c2cc(S(=O)(=O)O)ccc2Cl)C(=O)C1N=Nc1ccccc1 (stereo unspecified) ?
(A) F

(Q) Does growth inhibition meet or surpass 10% for CCCC(C)C(C)O (stereo unspecified) ?
(A) F

====

Recorded growth inhibition, one value per entry.
# ASSAY_SUMMARY: NCI Yeast Anticancer Drug Screen. Data for the rad50 strain (AID 155);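 also: 0% = growth of vehicle-only cultures of the same strain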
# ASSAY_CONTEXT: S. cerevisiae rad50 strain growth inhibition; at 50.0 µM; active compounds read high
About 79,000 compounds went through this panel and 15% of them were active in at least one assay; those are over-represented in the sample as a whole.
The figure you give is taken to be in %; do not add the unit.

Worked examples follow.
(Q) # return recorded growth inhibition for input CC(/C=C/C(=O)c1sc(C(N)=S)nc1C)=C\c1ccccc1
(A) 4.55

(Q) # return recorded growth inhibition for input CC(C)(C)NC(=O)Oc1ccc(-c2ccccc2)cc1
(A) 4.75

(Q) # return recorded growth inhibition for input COC(=O)c1nc(N)nc(C(=O)OC)c1C(=O)c1cccs1
(A) -2.55

(Q) # return recorded growth inhibition for input c1ccc(-c2ccc3ncccc3c2)cc1
(A) -17.9

Next:
(Q) # return recorded growth inhibition for input N#CC(=NCCO)C1=C(O)c2ccccc2C1=O
(A) 6.1

(Q) # return recorded growth inhibition for input CSc1nc(C)cc(Nc2ccc(O)c(CN3CCOCC3)c2)n1
(A) 6.1

(Q) # return recorded growth inhibition for input C=CCOC(=O)/C=C/C
(A) 7

(Q) # return recorded growth inhibition for input Cc1c([N+](=O)[O-])cc(C(C)(C)C)c(OC(=O)Nc2cccc(Cl)c2)c1[N+](=O)[O-]
(A) 60.7

(Q) # return recorded growth inhibition for input NC(=O)NOCC(N)C(=O)O (configuration not stated)
(A) -7.2

(Q) # return recorded growth inhibition for input CCCCCCCCCCCCCCCCSc1ccc(Br)cc1
(A) 45

(Q) # return recorded growth inhibition for input Cc1[nH]n(-c2ccccc2)c(=O)c1N=Nc1cccc(C(F)(F)F)c1
(A) 8.7

(Q) # return recorded growth inhibition for input COC(=O)CC1=CCCc2ccccc21
(A) -3.95

====

# ASSAY_SUMMARY: NCI Yeast Anticancer Drug Screen. Data for the rad50 strain (AID 155);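 also: 0% = growth of vehicle-only cultures of the same strain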
# ASSAY_CONTEXT: S. cerevisiae rad50 strain growth inhibition; at 50.0 µM; active compounds read high
The panel holds about 79,000 compounds, 15% with a hit somewhere; the sample as a whole holds those more often.
READOUT_KIND: growth inhibition (%)
The figure you give is taken to be in %; do not add the unit.

Worked examples follow.
(Q) # return recorded growth inhibition for input CCOC(=O)c1c(/N=C/c2cc(Br)cc(Br)c2O)sc2c1CCCC2
(A) -14.2

(Q) # return recorded growth inhibition for input CCCNC(=O)c1cccc2c1-c1ccccc1C2=O
(A) -0.55

(Q) # return recorded growth inhibition for input CCOc1c[n+](C)c(/C=C/c2ccccc2)s1
(A) 3.15

(Q) # return recorded growth inhibition for input O=[N+]([O-])c1ccc(/C=C/c2ccc([N+](=O)[O-])cc2S(=O)(=O)O)c(S(=O)(=O)O)c1
(A) 25.8

(Q) # return recorded growth inhibition for input O=c1[nH]c(=O)n(C2CC3OCC3O2)cc1F (centres undefined)
(A) -14.2

Next:
(Q) # return recorded growth inhibition for input NC1C(O)OCC(O)C1O (centres undefined)
(A) -0.35

(Q) # return recorded growth inhibition for input CC(O)(C(=O)O)C(NC(=O)c1ccccc1)C(=O)O (centres undefined)
(A) 12.2

(Q) # return recorded growth inhibition for input CCOC1CSc2ccccc2C(c2ccccc2)=N1 (centres undefined)
(A) 9.9

(Q) # return recorded growth inhibition for input CCCOCC(O)CNCCNCC(O)COCCC (centres undefined)
(A) 4.1

(Q) # return recorded growth inhibition for input S=C(SC1C=CCC1)N1CCOCC1 (centres undefined)
(A) 15.7

(Q) # return recorded growth inhibition for input O=C(C[n+]1csc2ccccc21)c1ccc(I)cc1
(A) -15.3

(Q) # return recorded growth inhibition for input O=C1Oc2cc3c(c4cccc1c24)O[C@H](c1ccccc1)[C@@H](c1ccccc1)[C@@H]3c1ccc(Cl)cc1
(A) -2.95

(Q) # return recorded growth inhibition for input Cn1c(=O)c2c(nc(CCCCCCCCc3nc4c(c(=O)n(C)c(=O)n4C)n3C)n2C)n(C)c1=O
(A) -7.5

(Q) # return recorded growth inhibition for input Cc1cc(C)c(NC(=O)Nc2cccc(Cl)c2)c(C)c1
(A) -0.85

(Q) # return recorded growth inhibition for input S=C(NCN1CCNCC1)C(=S)NCN1CCNCC1
(A) -14.2

(Q) # return recorded growth inhibition for input CCCC(=O)NC(Nc1cc(C)ccn1)(C(=O)OCC)C(F)(F)F (centres undefined)
(A) -4.85

(Q) # return recorded growth inhibition for input CCCCCc1c2nc(c(CCCCC)c3ccc([nH]3)c(CCCCC)c3ccc([nH]3)c(CCCCC)c3nc1C=C3)C=C2
(A) 0.1

(Q) # return recorded growth inhibition for input CCOC1CCCC(OCC)O1 (centres undefined)
(A) -44.4

Data provenance: PubChem BioAssay (NCI)
